The reported numbers originate from ChEMBL document CHEMBL2029256.

We begin with a simple list: items and their reported IC50.
target: Voltage-gated inwardly rectifying potassium channel KCNH2 (Homo sapiens, UniProt Q12809); assay: Inhibition of human Erg expressed in HEK293 cells by whole cell patch clamp analysis
Sequence (Q12809 whole entry): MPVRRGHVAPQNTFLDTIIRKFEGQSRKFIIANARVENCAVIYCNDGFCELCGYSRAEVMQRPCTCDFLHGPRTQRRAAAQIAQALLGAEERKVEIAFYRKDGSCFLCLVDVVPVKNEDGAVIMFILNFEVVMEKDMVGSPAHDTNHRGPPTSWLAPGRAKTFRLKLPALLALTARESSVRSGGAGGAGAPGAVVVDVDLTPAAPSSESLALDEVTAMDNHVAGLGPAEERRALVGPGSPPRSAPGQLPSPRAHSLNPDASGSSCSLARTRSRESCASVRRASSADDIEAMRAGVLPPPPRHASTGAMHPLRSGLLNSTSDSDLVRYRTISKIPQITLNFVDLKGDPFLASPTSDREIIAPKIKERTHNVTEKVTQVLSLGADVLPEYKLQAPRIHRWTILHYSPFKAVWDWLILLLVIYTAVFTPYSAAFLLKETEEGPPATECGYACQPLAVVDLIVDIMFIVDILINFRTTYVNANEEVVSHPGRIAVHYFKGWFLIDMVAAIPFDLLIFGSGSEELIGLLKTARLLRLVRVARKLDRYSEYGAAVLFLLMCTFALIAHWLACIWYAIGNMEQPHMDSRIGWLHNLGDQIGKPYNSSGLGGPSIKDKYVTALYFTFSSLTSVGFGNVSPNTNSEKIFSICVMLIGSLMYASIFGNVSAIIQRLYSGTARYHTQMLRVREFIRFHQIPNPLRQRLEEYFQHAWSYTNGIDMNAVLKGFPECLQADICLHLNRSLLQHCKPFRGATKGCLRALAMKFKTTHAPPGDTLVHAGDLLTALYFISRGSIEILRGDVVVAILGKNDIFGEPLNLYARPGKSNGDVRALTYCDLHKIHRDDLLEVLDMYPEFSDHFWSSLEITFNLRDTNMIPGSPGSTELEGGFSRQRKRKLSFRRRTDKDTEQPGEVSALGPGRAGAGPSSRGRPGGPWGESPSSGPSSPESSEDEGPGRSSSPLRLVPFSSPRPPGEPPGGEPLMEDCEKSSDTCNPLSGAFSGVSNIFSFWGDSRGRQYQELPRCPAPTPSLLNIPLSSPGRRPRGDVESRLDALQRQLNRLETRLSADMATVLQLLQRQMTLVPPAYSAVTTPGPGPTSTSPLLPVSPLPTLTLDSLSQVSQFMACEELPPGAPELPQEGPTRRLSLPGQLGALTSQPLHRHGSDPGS
# value in nM; strip the unit string

* COc1cc(CN2CCN(CCCCCC(c3ccc(F)cc3)c3ccc(F)cc3)CC2)cc(OC)c1OC | 400
* CC(C)(C)c1cc(CNCC2CCN(CCCCCC(c3ccc(F)cc3)c3ccc(F)cc3)C2)cc(C(C)(C)C)c1 (stereo not given) | 460
* COc1cc(C(=O)N2CCC(CNC(=O)CCCCC(c3ccc(F)cc3)c3ccc(F)cc3)C2)cc(OC)c1OC (stereo not given) | 750
* CC(C)(C)c1cc(CN2CCN(CCCCCC(c3ccc(F)cc3)c3ccc(F)cc3)CC2)cc(C(C)(C)C)c1O | 100

Now consider a different compound.
query: # return recorded IC50 for input COc1cc(CN2CCC(CNCCCCCC(c3ccc(F)cc3)c3ccc(F)cc3)C2)cc(OC)c1OC (stereo not given)
result: 100

----------
experiment: Inhibition of rat L-type calcium channel alpha1C/alpha2delta-1/beta1b expressed in HEK293 cells by whole cell patch clamp analysis; format: cell-based
readoutLabel: pIC50
Scale: pIC50 equals -log10([C]), with [C] in mol/L.

query: # return recorded pIC50 for input "COc1c(C(C)(C)C)cc(C(=O)N2CCN(C(=O)CCCCC(c3ccc(F)cc3)c3ccc(F)cc3)C[C@@H]2C)cc1C(C)(C)C"
result: 3.84
